# procedureSummary: Inhibition of GGTase 1
# Design: species or system Homo sapiens
pIC50: −log10 of the molar value.
readoutLabel: pIC50

a. CC(C)=CCC/C(C)=C/CC/C(C)=C/COc1ccc(/C=C/C(=O)O)cc1
b. COc1cc(/C=C/C(=O)O)ccc1OC/C=C(\C)CC/C=C(\C)CCC=C(C)C
Among a and b , which shows a numerically higher pIC50 result? API: response body contains the label of the selected item. a
(a: 4.55, b: 4.18)

====

# Species on record: Homo sapiens
# procedureSummary: Inhibition of GGTase 1 at 100 uM
readoutLabel: inhibition (%)

smilesData	unitName	inhibition
CC(C)=CCC/C(C)=C/COc1ccc(C(=O)O)cc1	%	0
COc1c(OC/C=C(\C)CCC=C(C)C)ccc2ccc(=O)oc12	%	34.2
COc1cc(C(=O)O)ccc1OC/C=C(\C)CCC=C(C)C	%	0
CC(C)=CCC/C(C)=C/CC/C(C)=C/COc1ccc(/C=C/C(=O)O)cc1	%	93.5
COc1cc(/C=C/C(=O)O)ccc1OCC=C(C)C	%	31
COc1cc(C(=O)O)ccc1OCC=C(C)C	%	0

1. CCOC(=O)/C=C/c1ccc(OC/C=C(\C)CCC=C(C)C)c(OC)c1
2. COc1cc(/C=C/C(=O)O)ccc1OC/C=C(\C)CC/C=C(\C)CCC=C(C)C
Among 1 and 2 , which shows a numerically higher inhibition result? API: response body contains the label of the selected item. 2
(2: 83.9%, 1: 3%)
